assay: Solubility in organic solvents via HPTLC (after 24 hours and 7 days); format: physicochemical; details: cyclohexylbenzene, 24 hours, room temperature
Each entry below carries its reported Solubility after 24 hours, Cyclohexylbenzene.

Consider the following illustrative entries.
[
  {
    "smilesText": "Cc1ccc2c(c1)-c1c(-c3cccc(-c4ccccc4)c3)cccc1C2(c1cccc(-c2cccc3c2-c2ccccc2C3(C)C)c1)c1cccc(-c2cccc3c2-c2ccccc2C3(C)C)c1",
    "result": "<40 mg/mL"
  },
  {
    "smilesText": "c1ccc(-c2cc(-c3ccccc3)cc(-c3cccc(-c4cccc(C5(c6cccc(-c7cccc(-c8cc(-c9ccccc9)cc(-c9ccccc9)c8)c7)c6)c6cc7c(cc6-c6c5ccc5c6-c6ccccc6C56c5ccccc5-c5ccccc56)OCO7)c4)c3)c2)cc1",
    "result": "<30 mg/mL"
  }
]

Task: What value of Solubility after 24 hours, Cyclohexylbenzene has been reported for the following compound? c1ccc(-c2cccc(-c3cc(-c4cccc(-c5ccccc5)c4)cc(C4(c5cc(-c6cccc(-c7ccccc7)c6)cc(-c6cccc(-c7ccccc7)c6)c5)c5ccccc5-c5c(-c6ccccc6-c6ccccc6)cccc54)c3)c2)cc1
Result: <50 mg/mL

====

experiment: Solubility in organic solvents via HPTLC (after 24 hours and 7 days); format: physicochemical; conditions: organic solvent or mixture, thermodynamic from solid; tetralin, 7 days storage at room temperature; read-out: Solubility after 7 days, Tetralin
recordedMetric: solubility at 7 days

[
  {
    "molecule": "c1ccc(-c2cc(-c3ccccc3)cc(-c3cccc(-c4cccc(C5(c6cccc(-c7cccc(-c8cc(-c9ccccc9)cc(-c9ccccc9)c8)c7)c6)c6ccccc6-c6ccccc65)c4)c3)c2)cc1 [Compound B-2, reference compound]",
    "solubility at 7 days": "< 20 mg/mL"
  },
  {
    "molecule": "Cc1cc(C)c(-c2cccc3c2-c2ccccc2C3(c2cc(-c3cc(-c4ccc(C(C)(C)C)cc4)cc(-c4ccc(C(C)(C)C)cc4)c3)cc(-c3cc(-c4ccc(C(C)(C)C)cc4)cc(-c4ccc(C(C)(C)C)cc4)c3)c2)c2cc(-c3cc(-c4ccc(C(C)(C)C)cc4)cc(-c4ccc(C(C)(C)C)cc4)c3)cc(-c3cc(-c4ccc(C(C)(C)C)cc4)cc(-c4ccc(C(C)(C)C)cc4)c3)c2)c(C)c1 [Compound M-0086]",
    "solubility at 7 days": "> 50 mg/mL"
  },
  {
    "molecule": "c1ccc(-c2cccc(-c3cc(-c4cccc(-c5ccccc5)c4)cc(C4(c5cc(-c6cccc(-c7ccccc7)c6)cc(-c6cccc(-c7ccccc7)c6)c5)c5ccccc5-c5ccccc54)c3)c2)cc1 [Compound B-1, reference compound]",
    "solubility at 7 days": "> 50 mg/mL"
  },
  {
    "molecule": "c1ccc(-c2cccc(-c3cc(-c4cccc(-c5ccccc5)c4)cc(C4(c5cc(-c6cccc(-c7ccccc7)c6)cc(-c6cccc(-c7ccccc7)c6)c5)c5ccccc5-c5ccc(-c6ccccc6)cc54)c3)c2)cc1 [Compound B-3, reference compound]",
    "solubility at 7 days": "< 50 mg/mL"
  }
]

--- query ---
Task: What value of solubility at 7 days has been reported for the following molecule? c1ccc(-c2cc(-c3ccccc3)cc(-c3cccc(-c4cccc(C5(c6cccc(-c7cccc(-c8cc(-c9ccccc9)cc(-c9ccccc9)c8)c7)c6)c6ccccc6-c6c(-c7cccc(-c8ccccc8)c7)cccc65)c4)c3)c2)cc1 [Compound M-0162]
Result: > 50 mg/mL
